- Test system: gene editing with Cas9
- assay_text: Screen of 322 new SSAP proteins, gene editing activity with Cas9 (Table 5)
- Assay type: cell-based
- assay_setup: normalized
measurement_label: Cas9 with SSAP activity (normalized)

Would you please look over these solved cases?
Qu. Suppose we examine the molecule SSAP_200: SEQ ID NO: 369; Streptomyces (multispecies) (protein, listed as Streptomyces sp.) SQISNALATRDQGPAAQIEQYRDEYAALVPSHVNADQWVRLAVGAVRGDEKLMEAAQNDIGLFLREMKTAARLGLEPGTEQFYLTPRKSKPHGGRKVIKGIVGYQGIVELIYRAGAASTVIVEAVRENDTFRYVPGRDDRPVHEIDWFANDRGPLVGVYAYAVMKDGAVSKVVVLNRSRVMEFKAKSDSKHSEYSPWNTNEEAMWLKSAVRQLAKWVPTSAEYRRDQLLAHTETADSVVASVSTAPLPPQPSALDDADPDDDGPIDAELVD ; what Cas9 with SSAP activity (normalized) value has been reported?
Ans. −0.973

Qu. Suppose we examine the molecule SSAP_154: SEQ ID NO: 323; Corynebacterium urealyticum (protein, listed as Corynebacterium urealyticum) AKNLEARMQQSTNAPARADKPLSLPDQIRQMEDQFRLAMPKGAEATQLVRDALTCLRQTPQLAQCTPASVLGGLMTCAQLGLRPGVLGHAYLIPFNDRRSGNSVAQLVIGYQGLVELAHRSGQIKALIARTVYENDHFDVDYGLEDKLVHKPHMGADKGNPVAYYAVVKFTTGGHAFYVMSHPEMLQYRDKNAKSPKRGPWVDNFEAMAHKTCVRQLAKWMPKSTEFSQALATDESIRLDVTPDAINYPDHPAEGEVIDGEVEQDGGQQ ; what Cas9 with SSAP activity (normalized) value has been reported?
Ans. −0.733

Qu. Suppose we examine the molecule SSAP_160: SEQ ID NO: 329; Veillonellaceae bacterium DNF00626 (protein, Veillonellaceae bacterium DNF00626) KTTGGLQQQQQQQAQALQNGGTTLKGYLQAMMPEIKKALPTVMTPERFTRIVMTTISTNPALQNCTPQSFLGAVMQAAQLGVEPNTPLGQAYLIPYGNQVQFQLGYKGLIDLAYRSGEVQSLQAHEVYQNDTFEYELGLNPKLKHIPALTNRGDVILYYAVIKFKNGGEGFEVMSKEDVEAFAKSKSKTYGRGPWQTDFDEMAKKTVLKKVLKYAPMKTDFIRAVATDETVKSSVAEQMADLPDETVTIDTEAQVVVDKETGEVKS ; what Cas9 with SSAP activity (normalized) value has been reported?
Ans. 0.942

Further cases:
Qu. Suppose we examine the molecule SSAP_228: SEQ ID NO: 397; Weissella koreensis (protein, listed as Weissella koreensis) ANELVKQLKSEKVAAQFETTAGKNAAAFASEVAISVMGNKALENASLSSVVVEATKASALGLSLLPTVGEAYLVPYKGQAQFQLGYKGLVQLAMRSGQMKSFGTVKVYEGEHPRWDKYSQELHTDGDETGEVVGYYAQFTLINGFKKADYWTKSAVEEHRSRFSKSKSGPWSTDFDAMAQKTVLKSILQYAPKSSEMTRAMASEDMNGDISEGTAKPIDITPETETPKVEEANQNQQIDTNEMVDEIKEYAKETNEAPKEQTVSAADEFFK ; what Cas9 with SSAP activity (normalized) value has been reported?
Ans. −0.688
